test system: P12-Ichikawa; experiment: cell viability relative to DMSO control; higher = less cytotoxic; conditions: HPLM + 10% dialyzed FBS; 48 h; 0.00234 µM
A collection of compounds and their measured cell viability

A selection of reference data follows.
COC1=CC2=NC=CC(=C2C=C1)OC3=CN=C(NC(=O)C/4=C(C)/N(CC(C)(C)O)N(C4=O)C5=CC=CC=C5)C=C3    92.6%
ClC1=C(N\C2=N\CCN2)C3=NSN=C3C=C1    117%
CC1(C)O[C@@H]2C[C@H]3[C@@H]4CCC5=CC(=O)C=C[C@]5(C)[C@@]4(F)[C@@H](O)C[C@]3(C)[C@]2(C(=O)CO)O1    105%
Cc1c(CCOc2ccc(C(=O)O)cc2)c2cc(Cl)ccc2n1C(c1ccccc1)c1ccccc1    110%
CCCCCOC(=O)NC\1=N\C(=O)N(\C=C1F)[C@@H]2O[C@H](C)[C@@H](O)[C@H]2O    91.7%

(Q) Query: cell viability; subject: `CN\1C(=O)/C(=C(\N=C1N2CCCC[S+]2([O-])=O)C(=O)NCC3=CC=C(F)C=C3)O`
(A) 123%

(Q) Query: cell viability; subject: `C[C@H](NC(=O)/C(C#N)=C/c1cccc(Br)n1)c1ccccc1`
(A) 113%

(Q) Query: cell viability; subject: `CC(=O)Oc1ccccc1C(=O)O`
(A) 96.4%

(Q) Query: cell viability; subject: `COC1=NC(=NC(=C1N\C2=N\CCN2)Cl)C`
(A) 90%

Just for reference, the supplement of paper PMC11451515 is where these values come from.
